# run description: solvent given as SMILES
# details: in Cc1ccccc1
The label rule met is reserved for absorption maximum strictly under 400 nm; rule not met covers values equal to or above it.

molecule: Cc1ccc(C2=C3C=CC(/C=C/c4ccccc4)=[N+]3[B-](F)(F)n3c(Cl)ccc32)cc1
classification: rule not met
--
molecule: COc1cc(Br)cc2cc(-c3cc4cc(Br)cc(OC)c4oc3=O)oc12
classification: rule met
--
molecule: O=Cc1ccc2nc(C#Cc3ccc(N(c4ccc(C#Cc5nc6ccc(C=O)cc6s5)cc4)c4ccc(C#Cc5nc6ccc(C=O)cc6s5)cc4)cc3)sc2c1
classification: rule not met

Task: Hello, I'm reviewing records and need to know if absorption maximum of CC1(C)c2ccccc2N(c2cccc(S(=O)(=O)c3cccc(N4c5ccccc5C(C)(C)c5ccccc54)c3)c2)c2ccccc21 is below 400 nm. Could you check?
Output: rule met

Task: Hello, I'm reviewing records and need to know if absorption maximum of c1ccc(N(c2ccccc2)c2ccc3ccc4c(N(c5ccccc5)c5ccccc5)ccc5ccc2c3c54)cc1 is below 400 nm. Could you check?
Output: rule not met

Task: Hello, I'm reviewing records and need to know if absorption maximum of c1ccc(-c2nc(-c3ccccc3)nc(-c3ccc(-n4c5ccccc5c5ccc6c(c7ccccc7n6-c6ccccc6)c54)cc3)n2)cc1 is below 400 nm. Could you check?
Output: rule met

Task: Hello, I'm reviewing records and need to know if absorption maximum of CC1(C)c2ccccc2N(c2ccc3c(c2)Oc2ccccc2P3(=O)c2ccccc2)c2ccccc21 (stereo not given) is below 400 nm. Could you check?
Output: rule met

Task: Hello, I'm reviewing records and need to know if absorption maximum of CCOC(=O)CN1C(=O)C2=C(c3ccc(N4CCCCC4)cc3)N(CC(=O)OCC)C(=O)C2=C1c1ccc(N2CCCCC2)cc1 is below 400 nm. Could you check?
Output: rule not met

Task: Hello, I'm reviewing records and need to know if absorption maximum of COc1cccc(C2=c3c(c4ccc(C(C)(C)C)cc4c4cc(C(C)(C)C)ccc34)=[N+]3C2=C(c2ccccc2)c2c(-c4cccc(OC)c4)c4c5ccc(C(C)(C)C)cc5c5cc(C(C)(C)C)ccc5c4n2[B-]3(F)F)c1 is below 400 nm. Could you check?
Output: rule not met

Task: Hello, I'm reviewing records and need to know if absorption maximum of CCCCCCCCC1(CCCCCCCC)c2ccccc2-c2ccc(N(c3ccc(-n4c5ccccc5c5ccccc54)cc3)c3ccc4c(c3)C(CCCCCCCC)(CCCCCCCC)c3ccccc3-4)cc21 is below 400 nm. Could you check?
Output: rule met

Task: Hello, I'm reviewing records and need to know if absorption maximum of Fc1c(F)c(-n2c3ccccc3c3ccccc32)c(F)c(F)c1-c1nnc(-c2ccccc2)o1 is below 400 nm. Could you check?
Output: rule met

Task: Hello, I'm reviewing records and need to know if absorption maximum of F[B-]1(F)n2c(Nc3cccc4cccnc34)ccc2C(c2ccccc2)=C2C=CC(Cl)=[N+]21 is below 400 nm. Could you check?
Output: rule not met

Task: Hello, I'm reviewing records and need to know if absorption maximum of CCn1c2ccccc2c2cc(/C=C3\C(=O)c4ccccc4S3(=O)=O)ccc21 is below 400 nm. Could you check?
Output: rule not met

====

# run description: solvent given as SMILES
# details: in CN(C)C=O
recorded endpoint: absorption maximum (nm)
Report the value in nm with no unit label.

Some solved entries appear below for comparison.
compound string: COC(=O)c1ccc(C#Cc2ccc(N(C)C)cc2)cc1
measurement unit: nm
absorption maximum: 367.5

compound string: COc1ccc(/C=C/c2ccc(-c3nnc(-c4ccc(-c5cc6ccccc6s5)cc4)o3)cc2)cc1
measurement unit: nm
absorption maximum: 351

compound string: CC1=[N+]2C(=C(c3c4ccccc4cc4ccccc34)c3ccc(C)n3[B-]2(F)F)C=C1
measurement unit: nm
absorption maximum: 517

compound string: N#CC(C#N)=Cc1cn(-c2ccccc2)nc1-c1ccc([N+](=O)[O-])cc1
measurement unit: nm
absorption maximum: 347

compound string: CN(C)c1ccc(C#Cc2ccc(C=O)cc2)cc1
measurement unit: nm
absorption maximum: 379.51

Task: Given the molecule O=C1Nc2ccccc2/C1=C/C(=O)c1ccc(Cl)cc1 , write its reported absorption maximum.
Output: 337

Task: Given the molecule CCCCCCCCC1(CCCCCCCC)c2cc(C=O)ccc2-c2ccc(/C=C/c3ccc(N(c4ccccc4)c4ccccc4)cc3)cc21 , write its reported absorption maximum.
Output: 410

Task: Given the molecule CCCCCCCCC1(CCCCCCCC)c2ccccc2-c2ccc(N(c3ccc(-n4c5ccccc5c5ccccc54)cc3)c3ccc4c(c3)C(CCCCCCCC)(CCCCCCCC)c3ccccc3-4)cc21 , write its reported absorption maximum.
Output: 345

Task: Given the molecule O=C1/C(=C2\Sc3ccc(S(=O)(=O)Nc4ccccc4)cc3C2=O)Sc2ccc(S(=O)(=O)Nc3ccccc3)cc21 , write its reported absorption maximum.
Output: 542

Task: Given the molecule O=Cc1ccc2ccc3cccc4ccc1c2c34 , write its reported absorption maximum.
Output: 390

Task: Given the molecule O=C1NC(=O)/C(=C\c2ccccc2O)S1 , write its reported absorption maximum.
Output: 353

Task: Given the molecule C(=C\c1nc2ccccc2[nH]1)/c1ccc(/C=C/c2nc3ccccc3[nH]2)cc1 , write its reported absorption maximum.
Output: 390

Task: Given the molecule CCn1c2ccccc2c2cc(-c3cc(-c4ccc5c(c4)c4ccccc4n5CC)nc(C#N)n3)ccc21 , write its reported absorption maximum.
Output: 387

Task: Given the molecule CCN(CC)c1ccc2c(C#N)c(/C=C(\C#N)c3nc4ccccc4s3)c(=O)oc2c1 , write its reported absorption maximum.
Output: 525

Task: Given the molecule CCN(CC)c1ccc2cc(/C=C/C3=C4CC/C(=C\c5cc6ccc(N(CC)CC)cc6oc5=O)C4=[O+][B-](F)(F)O3)c(=O)oc2c1 , write its reported absorption maximum.
Output: 673

Task: Given the molecule N#C/C(=C\c1cn(-c2ccccc2)nc1-c1ccccc1)c1nc2ccccc2s1 , write its reported absorption maximum.
Output: 388

Task: Given the molecule CCCCCCCN1C(=CC2=C([O-])C(=CC3=[N+](CCCCCCC)c4ccccc4C3(C)C)C2=C(C#N)C#N)C(C)(C)c2ccccc21 , write its reported absorption maximum.
Output: 681

Task: Given the molecule C#CCN1C(=O)/C(=C/c2cc(OC(C)C)ccc2OC(C)C)N=C1C , write its reported absorption maximum.
Output: 399

Task: Given the molecule CCNc1cc2oc3c/c(=[NH+]\CC)c(C)cc-3c(-c3ccccc3C(=O)OCC)c2cc1C , write its reported absorption maximum.
Output: 534

Task: Given the molecule CN(C)c1ccc(C2=Cc3ccc4ccccc4[n+]3[B-](F)(F)O2)cc1 , write its reported absorption maximum.
Output: 474

Task: Given the molecule O=c1oc2ccccc2cc1-c1nc2ccccc2o1 , write its reported absorption maximum.
Output: 352

====

Readings of absorption maximum for the listed compounds
# run description: solvent given as SMILES
# details: in CO
Report the value in nm with no unit label.

compound string: COc1nc(Nc2ccc3c4c(cccc24)C(=O)c2ccccc2-3)nc(OC)n1
absorption maximum [nm]: 419.99

compound string: O=C(O)c1ccc2ccc3cccc4ccc1c2c34
absorption maximum [nm]: 339

compound string: COCCOCCOCCOCCOc1ccc(OCCOCCOCCOCCOC)c(C=O)c1
absorption maximum [nm]: 349

compound string: CC1=CC(C)=[N+]2C1=Cc1c(C)cc(C)n1[B-]2(F)F
absorption maximum [nm]: 503

Alright, here's another compound for you.
Task: Given the compound O=C([O-])c1ccccc1-c1c2cc(Br)c(=O)c(Br)c-2oc2c(Br)c([O-])c(Br)cc12 , write its reported absorption maximum.
Output: 522

====

Readings of absorption maximum for the listed compounds
# run description: solvent given as SMILES
# details: in CC#N
Report the value in nm with no unit label.

Some solved entries appear below for comparison.
compound: N#Cc1c2nc3ccccn3c2nc2c1nc1ccccn12
absorption maximum [nm]: 430

compound: COC(=O)/C=C/c1sc(-c2ccc(N(C)C)cc2)cc1N
absorption maximum [nm]: 419

compound: c1cc2oc3cccc4oc5cccc6oc(c1)c2[c+](c34)c65
absorption maximum [nm]: 481

compound: CC1=[N+]2C(=C(c3c4ccccc4cc4ccccc34)c3ccc(C)n3[B-]2(F)F)C=C1
absorption maximum [nm]: 514

Task: Given the compound O=c1c2ccccc2n2c3ccc(-c4ccccc4)cc3c(=O)c3cccc1c32 , write its reported absorption maximum.
Output: 442

Task: Given the compound COc1ccc(-n2nc(C#N)c(N3CCCC3)n2)cc1 , write its reported absorption maximum.
Output: 340

Task: Given the compound COC(C)CC1=N/C(=C\c2cccc(N(C)C)c2)C(=O)N1C (configuration not stated) , write its reported absorption maximum.
Output: 355

Task: Given the compound CC(C)c1ccc(-c2nc(-c3ccccc3)c3ccccn23)cc1 , write its reported absorption maximum.
Output: 380

Task: Given the compound CCN(CC)c1ccc(/C=N/Nc2ccc(C#N)cc2)c(O)c1 , write its reported absorption maximum.
Output: 382

Task: Given the compound COc1nc(Nc2ccc3c4c(cccc24)C(=O)c2ccccc2-3)nc(OC)n1 , write its reported absorption maximum.
Output: 413.91

Task: Given the compound Cc1cc(C)n2c1C=C1c3ccccc3C(c3c[nH]c4ccccc34)=[N+]1[B-]2(F)F , write its reported absorption maximum.
Output: 575

Task: Given the compound Cc1ccc2occ(CC(=O)NN)c2c1 , write its reported absorption maximum.
Output: 289

Task: Given the compound Nc1ccc2ccc3cccc4ccc1c2c34 , write its reported absorption maximum.
Output: 361

Task: Given the compound CCc1c(C)c2n(c1C)[B-](F)(F)[N+]1=C(c3ccc[nH]3)c3ccccc3C1=C2 , write its reported absorption maximum.
Output: 608

Task: Given the compound c1ccc(-c2cc(-c3ccccc3)[o+]c(-c3ccccc3)c2)cc1 , write its reported absorption maximum.
Output: 403

Task: Given the compound COc1ccc(-n2cccc2)cc1 , write its reported absorption maximum.
Output: 252

Task: Given the compound CC1=CC(C)=[N+]2C1=C(c1ccc(N(C)C)cc1)c1c(C)cc(C)n1[B-]2(F)F , write its reported absorption maximum.
Output: 496

Task: Given the compound CC(=O)O[B-]1(OC(C)=O)OC(/C=C/c2cccc3ccccc23)=CC(/C=C/c2cccc3ccccc23)=[O+]1 , write its reported absorption maximum.
Output: 468

Task: Given the compound C(=C\c1ccnc2ccccc12)/c1c2ccccc2cc2ccccc12 , write its reported absorption maximum.
Output: 387

Task: Given the compound Oc1ccc2ccccc2c1/C=N/c1cc2ccccc2cc1/N=C/c1c(O)ccc2ccccc12 , write its reported absorption maximum.
Output: 474

Task: Given the compound c1ccc(-c2nc(-c3c4ccccc4cc4ccccc34)n3ccccc23)cc1 , write its reported absorption maximum.
Output: 375

Task: Given the compound Cc1s[c+](N2CCOCC2)sc1-c1cc(I)cc(I)c1[O-] , write its reported absorption maximum.
Output: 409
